# ASSAYED_SYSTEM: rat NR1/NR2B receptor (Rattus norvegicus (Rat), UniProt P35439+Q00960)
# Sequence (Q00960 27-1482, other chains not shown): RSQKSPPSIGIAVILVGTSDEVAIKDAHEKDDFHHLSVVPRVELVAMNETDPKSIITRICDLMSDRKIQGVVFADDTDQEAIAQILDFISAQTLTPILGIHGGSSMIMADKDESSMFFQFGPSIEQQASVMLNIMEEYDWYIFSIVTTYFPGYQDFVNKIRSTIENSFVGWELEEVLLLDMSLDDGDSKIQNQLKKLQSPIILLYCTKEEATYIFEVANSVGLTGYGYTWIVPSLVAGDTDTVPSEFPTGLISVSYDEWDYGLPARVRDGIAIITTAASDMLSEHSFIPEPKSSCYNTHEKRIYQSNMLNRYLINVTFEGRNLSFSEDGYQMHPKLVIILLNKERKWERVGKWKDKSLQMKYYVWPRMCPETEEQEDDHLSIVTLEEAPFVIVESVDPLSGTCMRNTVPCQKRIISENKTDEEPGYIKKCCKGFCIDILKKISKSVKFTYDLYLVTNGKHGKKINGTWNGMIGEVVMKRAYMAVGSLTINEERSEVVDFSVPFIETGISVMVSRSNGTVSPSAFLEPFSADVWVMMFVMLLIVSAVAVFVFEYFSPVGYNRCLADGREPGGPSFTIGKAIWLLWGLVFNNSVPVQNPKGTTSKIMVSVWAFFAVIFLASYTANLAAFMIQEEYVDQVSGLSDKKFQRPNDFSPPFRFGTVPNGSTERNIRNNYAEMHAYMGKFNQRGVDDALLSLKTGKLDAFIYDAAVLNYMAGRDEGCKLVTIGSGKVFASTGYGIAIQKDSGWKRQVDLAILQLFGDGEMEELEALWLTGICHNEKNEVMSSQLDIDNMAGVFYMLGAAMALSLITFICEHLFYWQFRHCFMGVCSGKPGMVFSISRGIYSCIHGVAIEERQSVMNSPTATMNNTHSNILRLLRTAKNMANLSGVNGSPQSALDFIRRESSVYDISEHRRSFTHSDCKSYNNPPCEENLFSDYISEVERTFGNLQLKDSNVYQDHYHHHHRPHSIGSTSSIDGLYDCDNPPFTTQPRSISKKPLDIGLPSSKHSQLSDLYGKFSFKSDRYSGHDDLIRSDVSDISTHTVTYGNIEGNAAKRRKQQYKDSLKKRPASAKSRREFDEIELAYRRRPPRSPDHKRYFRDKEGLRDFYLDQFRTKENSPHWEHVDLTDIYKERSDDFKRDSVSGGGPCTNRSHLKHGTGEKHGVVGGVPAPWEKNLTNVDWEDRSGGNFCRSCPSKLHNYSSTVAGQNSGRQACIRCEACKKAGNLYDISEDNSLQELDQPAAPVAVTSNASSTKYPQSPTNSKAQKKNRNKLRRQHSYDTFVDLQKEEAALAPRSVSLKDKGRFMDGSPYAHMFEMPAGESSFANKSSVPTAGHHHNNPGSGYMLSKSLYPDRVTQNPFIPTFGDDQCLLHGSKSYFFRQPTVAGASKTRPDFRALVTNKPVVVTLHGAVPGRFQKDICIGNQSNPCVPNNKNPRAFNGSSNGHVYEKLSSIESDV
# PROTOCOL_SUMMARY: RRNR2BB: inhibition of specific binding to the rat NR1/NR2B receptor
# CONDITION_CONTEXT: [3H]-Ifenprodil binding, rat brain membranes, Hill-plot 2-parameter-model
PROPERTY: IC50 (µM)

>>> quantitative_readout("COc1cc(F)ccc1-n1cc(Cn2ccnc2C)nn1")
1.18
>>> quantitative_readout("FC(F)(F)c1ccc(-n2cc(Cn3ccnc3C3CC3)nn2)cc1")
0.173

====

// reported IC50 per item
# ASSAYED_SYSTEM: rat NR1/NR2B receptor (Rattus norvegicus (Rat), UniProt P35439+Q00960)
# PROTOCOL_SUMMARY: NR2B binding assay: inhibition of specific [3H]-Ifenprodil binding to the rat NR1/NR2B receptor
# CONDITION_CONTEXT: rat brain membranes, Hill-plot 2-parameter-model
PROPERTY: IC50 (nM)

>>> quantitative_readout("Clc1ccc(-n2cc(Cn3ncnc3C3CCCC3)nn2)cc1")
12500
>>> quantitative_readout("CC(C)(C)c1nccn1Cc1cn(-c2ccc(Cl)c(OC(F)F)c2)nn1")
72.9
>>> quantitative_readout("Cc1nc2ccccc2n1Cc1cn(-c2ccc(Cl)c(Cl)c2)nn1")
141
>>> quantitative_readout("Cc1cc(-n2cc(Cn3ccnc3C)nn2)ccc1F")
5.32
>>> quantitative_readout("Cc1nccn1Cc1cn(-c2ccc(Cl)c(OC(F)F)c2)nn1")
1.2
>>> quantitative_readout("FC(F)(F)Oc1cccc(-n2cc(Cn3ccnc3C3CC3)nn2)c1")
34.5
>>> quantitative_readout("Nc1nccn1Cc1cn(-c2ccc(Cl)c(C(F)F)c2)nn1 [Example 113A]")
0.65
>>> quantitative_readout("CCCc1nccn1Cc1cn(-c2ccc(Cl)c(Cl)c2)nn1")
7.67
>>> quantitative_readout("OCCc1nccn1Cc1cn(-c2ccc(F)c(OC(F)F)c2)nn1")
4.26
>>> quantitative_readout("OCCc1nccn1Cc1cn(-c2ccc(F)c(C(F)F)c2)nn1")
14.5
>>> quantitative_readout("Cc1nccn1Cc1cn(-c2ccc(Cl)c(F)c2)nn1")
21.2
>>> quantitative_readout("Cc1nccn1Cc1cn(-c2ccc(Cl)c(C(F)(F)F)c2)nn1")
11.9
>>> quantitative_readout("Cc1nccn1Cc1cn(-c2ccc(F)c(Cl)c2)nn1")
7.01
>>> quantitative_readout("Cc1cc(-n2cc(Cn3ccnc3C)nn2)ccc1Cl")
1.64
>>> quantitative_readout("Cc1nccn1Cc1cn(-c2cccc(C3CC3)c2)nn1")
15.9
>>> quantitative_readout("FC(F)Oc1cc(-n2cc(Cn3ccnc3C3CC3)nn2)ccc1Cl")
3.91
>>> quantitative_readout("CC(C)c1nccn1Cc1cn(-c2ccc(F)c(C(F)F)c2)nn1")
11
>>> quantitative_readout("OCc1nccn1Cc1cn(-c2ccc(Cl)cc2)nn1")
573
>>> quantitative_readout("Cc1nccn1Cc1cn(-c2cccc(OC(F)(F)F)c2)nn1")
7.21

====

Reported values: IC50 for hERG-receptor (Homo sapiens (Human)), one per item.
PROPERTY: IC50 (µM)

>>> quantitative_readout("Clc1ccc(-n2cc(Cn3ccnc3C3CC3)nn2)cc1Cl [Example 36]")
1.16
>>> quantitative_readout("Clc1ccc(-n2cc(Cn3ccnc3C3CCC3)nn2)cc1Cl [Example 39]")
1.74
>>> quantitative_readout("CCc1nccn1Cc1cn(-c2ccc(Cl)c(C(F)F)c2)nn1 [Example 91]")
7.19
>>> quantitative_readout("OCCc1nccn1Cc1cn(-c2ccc(Cl)c(OC(F)F)c2)nn1 [Example 98]")
17.1
>>> quantitative_readout("CC(C)c1nccn1Cc1cn(-c2ccc(Cl)cc2)nn1 [Example 23]")
7.94
>>> quantitative_readout("Clc1ccc(-n2cc(Cn3ncnc3C3CCCC3)nn2)cc1 [Example 14]")
30.5
>>> quantitative_readout("Clc1ccc(-n2cc(Cn3ccnc3Cl)nn2)cc1 [Example 26]")
12.1
>>> quantitative_readout("Cc1cc(-n2cc(Cn3ccnc3C)nn2)ccc1Cl [Example 55]")
4.71
>>> quantitative_readout("FC(F)(F)c1ccc(-n2cc(Cn3ccnc3C3CC3)nn2)cc1 [Example 69]")
4.41
>>> quantitative_readout("FC(F)c1cc(-n2cc(Cn3ccnc3C3CC3)nn2)ccc1Cl [Example 90]")
5.35
>>> quantitative_readout("Fc1ccc(-n2cc(Cn3ccnc3C3CC3)nn2)cc1Cl [Example 44]")
3.57
>>> quantitative_readout("Cc1nc(C)n(Cc2cn(-c3ccccc3)nn2)n1 [Example 46]")
7.58
>>> quantitative_readout("Cc1nccn1Cc1cn(-c2cccc(S(C)(=O)=O)c2)nn1 [Example 77]")
150
>>> quantitative_readout("COc1cc(F)ccc1-n1cc(Cn2ccnc2C)nn1 [Example 52]")
41.7
>>> quantitative_readout("Cc1nccn1Cc1cn(-c2ccc(Cl)c(Cl)c2)nn1 [Example 32]")
3.93
>>> quantitative_readout("CC(C)(C)c1nccn1Cc1cn(-c2ccc(F)c(C(F)F)c2)nn1 [Example 87]")
7.52
>>> quantitative_readout("Cc1nccn1Cc1cn(-c2cccc(C(F)(F)F)c2)nn1 [Example 58]")
15
>>> quantitative_readout("CC(F)(F)c1cc(-n2cc(Cn3ccnc3N)nn2)ccc1F [Example 114]")
4.31
>>> quantitative_readout("Cc1nccn1Cc1cn(-c2ccc(F)c(OC(F)F)c2)nn1 [Example 100]")
12.8
>>> quantitative_readout("Cc1nccn1Cc1cn(-c2ccc(C(F)(F)F)cc2)nn1 [Example 59]")
6.27
>>> quantitative_readout("CCc1ncnn1Cc1cn(-c2ccc(Cl)cc2)nn1 [Example 5]")
194
>>> quantitative_readout("Cc1nc(C)n(Cc2cn(-c3ccc(Cl)cc3)nn2)n1 [Example 1]")
419
>>> quantitative_readout("Cc1cc(-n2cc(Cn3ccnc3C)nn2)ccc1F [Example 54]")
6.21
>>> quantitative_readout("CCCc1nccn1Cc1cn(-c2ccc(Cl)cc2)nn1 [Example 18]")
2.23
>>> quantitative_readout("Cc1nncn1Cc1cn(-c2ccc(Cl)cc2)nn1 [Example 31]")
22.4
>>> quantitative_readout("CCCCc1nccn1Cc1cn(-c2ccc(Cl)c(Cl)c2)nn1 [Example 37]")
0.585
>>> quantitative_readout("CCc1ncn(Cc2cn(-c3ccc(Cl)cc3)nn2)n1 [Example 6]")
54.9
>>> quantitative_readout("OCc1nccn1Cc1cn(-c2ccc(Cl)cc2)nn1 [Example 28]")
11.2
>>> quantitative_readout("Cc1cc(-n2cc(Cn3ccnc3C3CC3)nn2)ccc1Cl [Example 65]")
3.87
>>> quantitative_readout("FCCc1nccn1Cc1cn(-c2ccc(Cl)c(OC(F)F)c2)nn1 [Example 99]")
23.8
>>> quantitative_readout("CC(C)c1nccn1Cc1cn(-c2ccc(Cl)c(C(F)F)c2)nn1 [Example 92]")
11.3
>>> quantitative_readout("Cc1nccn1Cc1cn(-c2cccc(C3CC3)c2)nn1 [Example 76]")
10.3
>>> quantitative_readout("Cc1nccn1Cc1cn(-c2cccc(OC(F)(F)F)c2)nn1 [Example 57]")
8.59
>>> quantitative_readout("CCCCc1nccn1Cc1cn(-c2ccc(Cl)cc2)nn1 [Example 27]")
0.57
>>> quantitative_readout("CC(C)c1nccn1Cc1cn(-c2ccc(Cl)c(Cl)c2)nn1 [Example 35]")
5.88
>>> quantitative_readout("OCCc1nccn1Cc1cn(-c2ccc(F)c(OC(F)F)c2)nn1 [Example 101]")
36.7
>>> quantitative_readout("Cc1nc2ccccc2n1Cc1cn(-c2ccc(Cl)c(Cl)c2)nn1 [Example 117]")
3.09
>>> quantitative_readout("Cc1ncn(Cc2cn(-c3ccc(Cl)cc3)nn2)n1 [Example 9]")
46.9

====

# ASSAYED_SYSTEM: rat NR1/NR2B receptor (Rattus norvegicus (Rat), UniProt P35439+Q00960)
# PROTOCOL_SUMMARY: RRNR2BB: inhibition of specific binding to the rat NR1/NR2B receptor
# CONDITION_CONTEXT: [3H]-Ifenprodil binding, rat brain membranes, Hill-plot 2-parameter-model
PROPERTY: IC50 (nM)

>>> quantitative_readout("CS(=O)(=O)c1cccc(-n2cc(Cn3ccnc3CCF)nn2)c1 [Example 80]")
2680
>>> quantitative_readout("CC(C)c1nccn1Cc1cn(-c2ccc(Cl)c(C(F)F)c2)nn1 [Example 92]")
5.24
>>> quantitative_readout("CC(C)(C)c1nccn1Cc1cn(-c2ccc(F)c(C(F)F)c2)nn1 [Example 87]")
131
>>> quantitative_readout("OCCc1nccn1Cc1cn(-c2ccc(F)c(OC(F)F)c2)nn1 [Example 101]")
4.26
>>> quantitative_readout("FC(F)(F)c1cccc(-n2cc(Cn3ccnc3C3CC3)nn2)c1 [Example 68]")
91.6
>>> quantitative_readout("CC(C)(C)c1nccn1Cc1cn(-c2ccc(Cl)c(OC(F)F)c2)nn1 [Example 95]")
72.9
>>> quantitative_readout("CCc1nccn1Cc1cn(-c2ccc(Cl)c(C)c2)nn1 [Example 70]")
1.84
>>> quantitative_readout("CCCCc1nccn1Cc1cn(-c2ccc(F)c(Cl)c2)nn1 [Example 45]")
7.68
